The measured values listed here are drawn from patent US10047131B2.

biological target: HLA-A*02:01 (Homo sapiens, UniProt P04439, D140Y/D185E/D98H/E176V/E277Q/G131W/G231S/I119V/I121R/I166T/I218V/L300P/L318F/N151K/N90K/P208A/P217A/Q86G/Q94H/R138H/R169H/T345S); test: MHC binding assay (UV-ligand exchange, ELISA of exchange yield); conditions: binding to HLA-A*02:01, UV-ligand exchange
parameter measured: Peptide exchange (MHC class I binding score, peptide exchange yield)

Observe how each entry below is paired with its result.
>  <substance>
519 (GLLHLTLLL; listed as Homo sapiens) [compound 519]

>  <assay value>
“+++” (≥50 = +++)

$$$$
>  <substance>
496 (FLVEKQPPQV; listed as Homo sapiens) [compound 496]

>  <assay value>
“+++” (≥50 = +++)

$$$$
>  <substance>
440 (ALADGVTMQV; listed as Homo sapiens) [compound 440]

>  <assay value>
“++” (≥20% = ++)

$$$$
>  <substance>
565 (ALQETPTSV; listed as Homo sapiens) [compound 565]

>  <assay value>
“++” (≥20% = ++)

$$$$
>  <substance>
75 (GLLEVMVNL; listed as Homo sapiens) [compound 75]

>  <assay value>
“+++” (≥50 = +++)

$$$$
>  <substance>
447 (QLVPALAKV; listed as Homo sapiens) [compound 447]

>  <assay value>
“++” (≥20% = ++)

$$$$
>  <substance>
373 (SLLEDKGLAEV; listed as Homo sapiens) [compound 373]

>  <assay value>
“++” (≥20% = ++)

$$$$
>  <substance>
183 (FGLDLVTEL; listed as Homo sapiens) [compound 183]

>  <assay value>
“+++” (≥50 = +++)

$$$$

Please look at the following substance next.
[in] Which Peptide exchange (MHC class I binding score, peptide exchange yield) is listed for 87 (ALPEAPAPLLPHIT; listed as Homo sapiens) [compound 87] ?
[out] “++” (≥20% = ++)

* * *

target: HLA-A*02:01 (Homo sapiens, UniProt P04439, D140Y/D185E/D98H/E176V/E277Q/G131W/G231S/I119V/I121R/I166T/I218V/L300P/L318F/N151K/N90K/P208A/P217A/Q86G/Q94H/R138H/R169H/T345S); test: MHC binding assay (UV-ligand exchange, ELISA of exchange yield); details: binding to HLA-A*02:01, UV-ligand exchange
parameter measured: Peptide exchange (MHC class I binding score, peptide exchange yield)

Please review the following examples before continuing.
>  <substance>
63 (YLLPSGGSVTL; listed as Homo sapiens) [compound 63]

>  <assay value>
“++” (≥20% = ++)

$$$$
>  <substance>
621 (VLMDRLPSLL; listed as Homo sapiens) [compound 621]

>  <assay value>
“++++” (≥75% = ++++)

$$$$
>  <substance>
91 (IMQDFPAEIFL; listed as Homo sapiens) [compound 91]

>  <assay value>
“++++” (≥75% = ++++)

$$$$
>  <substance>
551 (KLYESLLPFA; listed as Homo sapiens) [compound 551]

>  <assay value>
“+++” (≥50 = +++)

$$$$

[in] Reported Peptide exchange (MHC class I binding score, peptide exchange yield), substance 73 (NIFDLQIYV; listed as Homo sapiens) [compound 73] : ____
[out] “+++” (≥50 = +++)

[in] Entry 127 (KIGDEPPKV; listed as Homo sapiens) [compound 127] : reported Peptide exchange (MHC class I binding score, peptide exchange yield) = ?
[out] “++” (≥20% = ++)

[in] Field request: Peptide exchange (MHC class I binding score, peptide exchange yield) | item: 41 (SLMPHIPGL; listed as Homo sapiens) [compound 41]
[out] “+++” (≥50 = +++)

[in] Consider the substance 130 (FLWNGEDSALL; listed as Homo sapiens) [compound 130] and give its measured Peptide exchange (MHC class I binding score, peptide exchange yield).
[out] “+++” (≥50 = +++)

[in] Recorded Peptide exchange (MHC class I binding score, peptide exchange yield) for 574 (YLLQEPPRTV; listed as Homo sapiens) [compound 574] , please?
[out] “++” (≥20% = ++)

[in] Suppose we examine the substance 120 (ALLGIPLTLV; listed as Homo sapiens) [compound 120] ; what Peptide exchange (MHC class I binding score, peptide exchange yield) value has been reported?
[out] “+++” (≥50 = +++)

[in] Find the recorded Peptide exchange (MHC class I binding score, peptide exchange yield) belonging to 527 (FLLEPGNLEV; listed as Homo sapiens) [compound 527] and report it.
[out] “++++” (≥75% = ++++)

[in] Consider the substance 36 (YVLEDLEVTV; listed as Homo sapiens) [compound 36] and give its measured Peptide exchange (MHC class I binding score, peptide exchange yield).
[out] “++” (≥20% = ++)

[in] Entry under review: 1 (SLMEPPAVLLL; listed as Homo sapiens) [compound 1] . Reported Peptide exchange (MHC class I binding score, peptide exchange yield)?
[out] “+++” (≥50 = +++)

[in] Peptide exchange (MHC class I binding score, peptide exchange yield) for 393 (GLLDTQTSQVLTA; listed as Homo sapiens) [compound 393] ?
[out] “++” (≥20% = ++)
